Known melting point of a selection of compounds

Illustrative cases are given below, each with its answer.
Cc1cc(C#N)cc(C)c1Oc1nc(Nc2ccc(C#N)cc2)ncc1N | > 300 °C
Cc1cc(C#N)cc(C)c1Nc1nc(Nc2ccc(C#N)cc2)ncc1Br | 277 to 280 °C
Cc1cc(C)c(Nc2nc(Nc3ccc(C#N)cc3)ncc2-c2ccccc2)c(C)c1 | 209 to 214 °C

# input for lookup
Request: Write down melting point measured for item Cc1cc(C)c(Nc2nc(Nc3ccc(C#N)cc3)nc(Cl)c2Br)c(C)c1
Response: 220 to 221 °C

----------
Assay: cytotoxicity in mock-infected MT-4 cells (MTT)
Type: cell-based
Details: human, mock-infected MT-4 cells; concentration reducing absorbance of mock-infected MT-4 control by 50%; MTT
measured.attribute: CC50 (µM)
Output spec: scalar in µM, unitless text.

Here is how some compounds turned out for CC50.
Cc1cc(C)c(Nc2ncc(Cl)c(Nc3ccc(C#N)cc3)n2)c(C)c1 [Compound 1] | 10.9
Cc1cc(C)c(Nc2ncc(Br)c(Nc3ccc(C#N)cc3)n2)c(C)c1 [Compound 2] | 82.6
Cc1cc(C)c(Nc2nc(Nc3ccc(C#N)cc3)ncc2Cl)c(C)c1 [Compound 5] | 0.4

Now examine the next entry.
Request: Please supply the value of reported CC50 for the item Cc1cc(C)c(Nc2nc(Nc3ccc(C#N)cc3)nc(N)c2Cl)c(C)c1.O=C(O)C(F)(F)F [Compound 4]
Response: 10

----------
System: mock-infected MT-4 cells
Experiment: cytotoxicity in mock-infected MT-4 cells (MTT)
Format: cell-based
Property: CC50; scope: individual molecules
Report only the number, with the unit µM understood.

Cc1cc(C#N)cc(C)c1Oc1nc(N(COC(=O)C(C)(C)C)c2ccc(C#N)cc2)ncc1Br [Compound 60] | 74.5
Cc1cc(C(C)(C)C)cc(C)c1Nc1nc(Nc2ccc(C#N)cc2)ncc1Cl [Compound 12] | 48.5
Cc1cc(Br)cc(C)c1Nc1nc(Nc2ccc(C#N)cc2)ncc1Cl [Compound 9] | 1.2

Request: State, in one line, measured CC50 of Cc1cc(C#N)cc(C)c1Nc1nc(Nc2ccc(C#N)cc2)ncc1Cl [Compound 13]
Response: 0.4

Request: Report CC50, nothing else, for this molecule: N#Cc1ccc(Nc2ncc(Cl)c(Nc3c(F)cc(Br)cc3Br)n2)cc1 [Compound 11]
Response: 0.4

----------
Each entry below carries its reported melting point.
Where a name gives a salt, the structure may show the parent alone.

A selection of reference data follows.
C=Cc1cnc(Nc2ccc(C#N)cc2)nc1Nc1c(C)cc(C)cc1C (as salt: trifluoroacetate) | 237 to 242 °C
CONc1nc(Nc2ccc(C#N)cc2)nc(Oc2c(C)cc(C#N)cc2C)c1Br | 185 to 186 °C

Request: Could you please provide reported melting point for C#Cc1cnc(Nc2ccc(C#N)cc2)nc1Nc1c(C)cc(C)cc1C ? Thanks!
Response: 165 to 175 °C

----------
Tested on: mock-infected MT-4 cells
Test: cytotoxicity in mock-infected MT-4 cells (MTT)
Format: cell-based
CC50 listing for selected molecules.

These recorded examples may help you get a feel for the data.
Cc1cc(Br)cc(Cl)c1Oc1nc(Nc2ccc(C#N)cc2)ncc1Cl | > 100 µM
Cc1cc(C)c(Sc2nc(Nc3ccc(C#N)cc3)ncc2Cl)c(C)c1 | > 100 µM

Request: Give the reported CC50 for this molecule. Cc1cc(Cl)cc(C)c1Oc1nc(Nc2ccc(C#N)cc2)ncc1Cl
Response: > 100 µM

Request: Supply reported CC50 belonging to this molecule: Cc1cc(C#N)cc(C)c1Oc1nc(Nc2ccc(C#N)cc2)ncc1Cl
Response: > 10 µM

Request: Give the reported CC50 for this molecule. Cc1cc(Br)cc(C)c1Oc1nc(Nc2ccc(C#N)cc2)ncc1Cl
Response: > 100 µM
